// data source = patent US8901111B2

- Tested Target: FAAH (Homo sapiens, UniProt O00519)
- Sequence (O00519 whole entry): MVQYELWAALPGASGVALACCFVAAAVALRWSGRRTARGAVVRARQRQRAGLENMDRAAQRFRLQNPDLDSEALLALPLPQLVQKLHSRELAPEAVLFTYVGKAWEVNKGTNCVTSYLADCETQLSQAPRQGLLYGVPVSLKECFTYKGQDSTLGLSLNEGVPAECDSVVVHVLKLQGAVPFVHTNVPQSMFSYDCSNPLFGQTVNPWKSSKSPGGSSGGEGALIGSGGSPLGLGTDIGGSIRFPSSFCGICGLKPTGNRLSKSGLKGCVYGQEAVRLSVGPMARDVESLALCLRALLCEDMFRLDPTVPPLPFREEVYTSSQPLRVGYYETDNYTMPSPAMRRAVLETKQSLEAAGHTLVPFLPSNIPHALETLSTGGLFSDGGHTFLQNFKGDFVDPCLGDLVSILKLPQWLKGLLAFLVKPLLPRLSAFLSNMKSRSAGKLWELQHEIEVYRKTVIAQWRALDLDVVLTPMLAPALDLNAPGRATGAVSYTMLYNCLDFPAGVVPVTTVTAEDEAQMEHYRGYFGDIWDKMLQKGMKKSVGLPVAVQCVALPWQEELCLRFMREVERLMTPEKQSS
- Assay Name: Assay Method 1: FAAH assay, 3H-anandamide hydrolysis in homogenate of cells transfected with human FAAH
- Experimental Conditions: cell homogenate, 3H-AEA 80 nM, 1 h at rt, average of results
pIC50: −log10 of the molar value.
Metric: pIC50

These solved cases illustrate the format of a correct answer.
{"columns": ["Molecule", "pIC50"],
 "data": [
  ["O=C(Nc1cnc2ccccn12)N1CC(CCOc2cccc(Oc3ccc(Cl)cc3)c2)C1 [Example 42]", 7.52],
  ["O=C(Nc1cncc2ccccc12)N1CC(CCOc2cccc(Oc3ccc(Cl)cc3)c2)C1 [Example 38]", 7.57]
]}

a. O=C(Nc1cccnc1)N1CCC(CCOc2cccc(Oc3ccc(Cl)cc3)c2)C1 (stereo not shown) [Example 63]
b. O=C(Nc1cnccc1Cl)N1CC(CCOc2cccc(Oc3ccc(Cl)cn3)c2)C1 [Example 48]
c. O=C(Nc1cnccc1Cl)N1CCC(Cc2cccc(Oc3ccc(F)cc3)c2)C1 (stereo not shown) [Example 75]
d. O=C(Nc1cccnc1)N1CC(CCOc2cc(Cl)cc(Cl)c2)C1 [Example 47]
e. O=C(Nc1cnc2cccnn12)N1CC(CCOc2cccc(Oc3ccc(Cl)cc3)c2)C1 [Example 1]
# input Order the entries by their reported pIC50, beginning at the minimum. # output: labels, in the requested order
# output d, a, c, e, b
(d: 6.00, a: 6.22, c: 7.35, e: 8.30, b: 9.00)
